- System: ESCHERICHIA COLI H560
- assay_notes: In vitro antibacterial activity, MIC, BHI agar dilution
- Format: cell-based
- measurement_conditions: E. coli H560, unit assumed
Each item that follows carries a reported MIC.

# compound, test_system, qualifier_operator, MIC, mg/L
measured = [
    ("CC[C@H]1OC(=O)[C@H](C)C(=O)[C@H](C)[C@@H](O[C@@H]2O[C@H](C)C[C@H](N(C)C)[C@H]2O)[C@](C)(OC)C[C@@H](C)C2=NC[C@H](Cc3cscn3)N3C(=O)O[C@@]1(C)[C@H]3[C@H]2C", "ESCHERICHIA COLI H560", "=", 50),
    ("CC[C@H]1OC(=O)[C@H](C)C(=O)[C@H](C)[C@@H](O[C@@H]2O[C@H](C)C[C@H](N(C)C)[C@H]2O)[C@](C)(OC)C[C@@H](C)C2=N[C@@H](COCc3ccccc3)CN3C(=O)O[C@@]1(C)[C@H]3[C@H]2C", "ESCHERICHIA COLI H560", "=", 25),
    ("CC[C@H]1OC(=O)[C@H](C)C(=O)[C@H](C)[C@@H](O[C@@H]2O[C@H](C)C[C@H](N(C)C)[C@H]2O)[C@](C)(OC)C[C@@H](C)C2=NC3CN(CCc4cccc([N+](=O)[O-])c4)CC3N3C(=O)O[C@@]1(C)[C@H]3[C@H]2C (stereo partly drawn)", "ESCHERICHIA COLI H560", "=", 50),
    ("CC[C@H]1OC(=O)[C@H](C)C(=O)[C@H](C)[C@@H](O[C@@H]2O[C@H](C)C[C@H](N(C)C)[C@H]2O)[C@](C)(OC)C[C@@H](C)C2=N[C@H](COCc3ccc(Br)cc3)CN3C(=O)O[C@@]1(C)[C@H]3[C@H]2C", "ESCHERICHIA COLI H560", "=", 100),
    ("CC[C@H]1OC(=O)[C@H](C)C(=O)[C@H](C)[C@@H](O[C@@H]2O[C@H](C)C[C@H](N(C)C)[C@H]2O)[C@](C)(OC)C[C@@H](C)C2=NC3CN(CCc4ccc([N+](=O)[O-])cc4)CC3N3C(=O)O[C@@]1(C)[C@H]3[C@H]2C (stereo partly drawn)", "ESCHERICHIA COLI H560", "=", 100),
    ("CC[C@H]1OC(=O)[C@H](C)C(=O)[C@H](C)[C@@H](O[C@@H]2O[C@H](C)C[C@H](N(C)C)[C@H]2O)[C@](C)(OC)C[C@@H](C)C2=NCC(COC(=O)c3ccc4ccccc4n3)N3C(=O)O[C@@]1(C)[C@H]3[C@H]2C (stereo partly drawn)", "ESCHERICHIA COLI H560", "=", 25),
    ("CC[C@H]1OC(=O)[C@H](C)C(=O)[C@H](C)[C@@H](O[C@@H]2O[C@H](C)C[C@H](N(C)C)[C@H]2O)[C@](C)(OC)C[C@@H](C)C2=NCC(COC(=O)c3ccnc4ccccc34)N3C(=O)O[C@@]1(C)[C@H]3[C@H]2C (stereo partly drawn)", "ESCHERICHIA COLI H560", "=", 12.5),
    ("CCC1OC(=O)C(C)C(=O)C(C)C(OC2OC(C)CC(N(C)C)C2O)C(C)(OC)CC(C)C2=NC(c3ccccc3)C(c3ccccc3)N3C(=O)OC1(C)C3C2C (stereo not drawn)", "ESCHERICHIA COLI H560", ">", 100),
    ("CCC1OC(=O)C(C)C(=O)C(C)C(OC2OC(C)CC(N(C)C)C2O)C(C)(OC)CC(C)C2=NCC(C)(CN(C)Cc3ccccc3)N3C(=O)OC1(C)C3C2C (stereo not drawn)", "ESCHERICHIA COLI H560", "=", 50),
]
